# Lookup of reported log10(GI50) keyed by entry
test system: Panc 05.04 cells (SF3b K700E mutant); experiment: Cell proliferation and viability, CellTiter-Glo, 72 hours; assay type: cell-based; conditions: Panc 05.04, read-out: CTGlo-ATS GMean GI50 (nM) 72 h PANC0504.1; PANC0504.1 cells, 72 h; geometric mean
Friendly reminder: values = log10 of GI50, unit nM.

{"columns": ["INPUT_SMILES", "ASSAY_METRIC", "VALUE_MEASURED"],
 "data": [
  ["CNC(=O)[C@H]1CN(c2cc(F)cc(/C=C(\\C)[C@H]3OC(=O)C[C@H](O)CC[C@H](C)[C@@H](OC(=O)N4CCN(C)CC4)/C=C/[C@@H]3C)c2)CCO1", "log10(GI50)", 0.87],
  ["C/C(=C\\c1cc(N2CCOCC2)ccc1F)[C@H]1OC(=O)C[C@H](O)CC[C@H](C)[C@@H](OC(=O)N2CCC(N3CCCCC3)CC2)/C=C/[C@@H]1C", "log10(GI50)", 1.73],
  ["C/C(=C\\c1ccc2cnn(C)c2c1)[C@H]1OC(=O)C[C@H](O)CC[C@H](C)[C@@H](OC(=O)N2CCN(C)CC2)/C=C/[C@@H]1C", "log10(GI50)", 1.24],
  ["C/C(=C\\c1cc(F)cc(N2CCN(C(=O)CN3CCOCC3)CC2)c1)[C@H]1OC(=O)C[C@H](O)CC[C@H](C)[C@@H](OC(=O)N2CCN(C)CC2)/C=C/[C@@H]1C", "log10(GI50)", 0.93]
]}

Incoming: Can you share its log10(GI50)? I mean this compound: `C/C(=C\c1cc(F)cc(N2CCN(CC3CC3)C2=O)c1)[C@H]1OC(=O)C[C@H](O)CC[C@H](C)[C@@H](OC(=O)N2CCN(C)CC2)/C=C/[C@@H]1C`
Outgoing: 1.07

Incoming: I'd like to know its log10(GI50). The compound in question is `COCCC(=O)N1CCN(c2cc(F)cc(/C=C(\C)[C@H]3OC(=O)C[C@H](O)CC[C@H](C)[C@@H](OC(=O)N4CCN(C)CC4)/C=C/[C@@H]3C)c2)CC1`
Outgoing: 0.61

Incoming: Name the recorded log10(GI50) for `C/C(=C\c1ccc(S(=O)(=O)NC2CC2)c(F)c1)[C@H]1OC(=O)C[C@H](O)CC[C@H](C)[C@@H](OC(=O)N2CCN(C)CC2)/C=C/[C@@H]1C` .
Outgoing: 2.15

Incoming: Quick one: log10(GI50) for `C/C(=C\c1cc(F)cc(N2CCN(CCO)CC2)c1)[C@H]1OC(=O)C[C@H](O)CC[C@H](C)[C@@H](OC(=O)N2CCC(N3CCCCC3)CC2)/C=C/[C@@H]1C` ?
Outgoing: 1.51

Incoming: Name the recorded log10(GI50) for `C/C(=C\c1cc(F)c2cn[nH]c2c1)[C@H]1OC(=O)C[C@H](O)CC[C@H](C)[C@@H](OC(=O)N2CCN(C)CC2)/C=C/[C@@H]1C` .
Outgoing: 1.24

Incoming: What value of log10(GI50) has been reported for the following compound? `C/C(=C\c1cc(F)cc(N2CC3CCC(C2)O3)c1)[C@H]1OC(=O)C[C@H](O)CC[C@H](C)[C@@H](OC(=O)N2CCN(C)CC2)/C=C/[C@@H]1C`
Outgoing: 0.81

Incoming: Using the record for `C/C(=C\c1cc(F)c2c(c1)nnn2CC1CC1)[C@H]1OC(=O)C[C@H](O)CC[C@H](C)[C@@H](OC(=O)N2CCN(C)CC2)/C=C/[C@@H]1C` , report its log10(GI50).
Outgoing: 2.38

Incoming: Quick check: log10(GI50) of `C/C(=C\c1cc(F)cc(N(C)C2CCN(S(C)(=O)=O)CC2)c1)[C@H]1OC(=O)C[C@H](O)CC[C@H](C)[C@@H](OC(=O)N2CCN(C)CC2)/C=C/[C@@H]1C` ?
Outgoing: 0.78

Incoming: Fill blank: measured log10(GI50) of the compound `C/C(=C\c1cc(F)cc(N2CCOCC2)c1)[C@H]1OC(=O)C[C@H](O)CC[C@H](C)[C@@H](OC(=O)N(C)C2CCN(C)CC2)/C=C/[C@@H]1C` is ____.
Outgoing: 1.06

Incoming: I am curious: what log10(GI50) value has been reported for `CNC(=O)Cn1ncc2c(F)cc(/C=C(\C)[C@H]3OC(=O)C[C@H](O)CC[C@H](C)[C@@H](OC(=O)N4CCN(C)CC4)/C=C/[C@@H]3C)cc21` ?
Outgoing: 1.65

Incoming: Return reported log10(GI50); argument: `C/C(=C\c1ccc(S(=O)(=O)NC2CCCC2)cc1F)[C@H]1OC(=O)C[C@H](O)CC[C@H](C)[C@@H](OC(=O)N2CCN(C)CC2)/C=C/[C@@H]1C`
Outgoing: 1.70

Incoming: // log10(GI50) lookup, key: `C/C(=C\c1cc(F)cc(N2CCN(C(=O)CO)CC2)c1)[C@H]1OC(=O)C[C@H](O)CC[C@H](C)[C@@H](OC(=O)N2CCN(C)CC2)/C=C/[C@@H]1C`
Outgoing: 0.39
